target.system: T1, Activin B (UniProt P09529 293-407)
T1 sequence (looked up): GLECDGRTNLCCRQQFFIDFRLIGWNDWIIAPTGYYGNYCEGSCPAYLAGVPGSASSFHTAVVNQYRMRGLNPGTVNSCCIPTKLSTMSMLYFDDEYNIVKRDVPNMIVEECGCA
measurement.protocol: SPR, Biacore 3000; receptor fusion captured on chip, ligand in solution
We begin with a simple list: items and their reported pKd.
Scale: negative log10 of molar concentration, which is what pKd denotes.

// known answers, use as guide
binder	pKd
ActRIIa/bmax3 variant (SEQ ID NO: 72) fused to the N-terminus of hFc through a GGG linker (Fc fusion, not shown: human Fc (hFc)) GAILGRSETQECLFYNANWELERTNQTGVERCEGEKDKRLHCYATWRNISGSIEIVKKGCWLDDFNCYDRTDCVETEENPQVYFCCCEGNMCNEKFSYFPEMEVTQPTSNPVTPKGGG	10.37
ActRIIa/b+ (SEQ ID NO: 150) fused to the N-terminus of hFc through a GGG linker (Fc fusion, also called ActRIIab+ variant; not shown: human Fc (hFc)) GAILGRSETQECLFYNANWELERTNQTGVERCEGEKDKRLHCYATWRNISGSIEIVAKGCWLDDFNCYDRTDCVETEENPQVYFCCCEGNMCNEKFSYFPEMEVTQPTSGGG	9.55

// switching to the query binder
The recorded pKd for ActRIIa/b-delta 9m2 (SEQ ID NO: 38) fused to the N-terminus of hFc through a GGG linker (Fc fusion, also called ActRIIa/bΔ9m2 variant; not shown: human Fc (hFc)) GAILGRSETQECLFYNANWELDRTNQTGVERCEGEKDKRLHCYATWRNISGSIEIVKKGCWLDDINCYDRTDCVETKENPQVYFCCCEGNMCNEKFSYFPEMEVTQPTSGGG is 9.98
